System: CCRIS mutagenicity, Ames/micronucleus/aberration tests
experimental-details: CCRIS mutagenicity studies
condition-summary: Test System: AMES SALMONELLA TYPHIMURIUM; Strain/Indicator: TA102; Metabolic Activation: NONE; Method: PREINCUBATION
Calls of active or inactive are those of the source. The rule behind the calls is not given here.
Classes used: yes = active, no = inactive

* O=C(O)CN(CCN(CC(=O)O)CC(=O)O)CC(=O)O | no
* CC(=O)Oc1cc(C=O)cc2c1C(COC(N)=O)C1(OC(C)=O)ON2CC2C1N2C(C)=O (centres undefined) | no
* Cc1ccco1 | no
* O=C1c2ccccc2C(=O)c2c1cc(O)c(CO)c2O | yes
* O=C(O)c1ccc(O)cc1 | no
* OCc1ccco1 | no
* CCOC(N)=O | no
* CC(C)COC(=O)Cc1ccccc1 | no
* CC(C)(CO)[C@@H](O)C(=O)NCCC(=O)O | no
* CC(C)=O | no
* NC1=CC(=O)C(=O)c2ccccc21 | no
* Cc1ccc(C=O)cc1 | no
* CC(C)=CCC1=C(O)c2ccccc2C(=O)C1=O | no
* C=C1C[C@@]23CC[C@H]4[C@@](C)(CCC[C@@]4(C)C(=O)O[C@@H]4O[C@H](CO)[C@@H](O)[C@H](O)[C@H]4O)[C@@H]2CC[C@]1(O[C@@H]1O[C@H](CO)[C@@H](O)[C@H](O)[C@H]1O[C@@H]1O[C@H](CO)[C@@H](O)[C@H](O)[C@H]1O)C3 | no
* CC(C)(OOC(C)(C)c1ccccc1)c1ccccc1 | no
* COC1=C(OC)C(=O)C(C)=CC1=O | no
* CCNC(=O)CC[C@H](N)C(=O)O | no
* O=C(O)C(=O)C(=O)O | no
* COc1cc(OC)c(OC)cc1C=O | no
* OC[C@@H](O)[C@@H](O)[C@H](O)[C@H](O)CO | no
* O=S(O)S(=O)(=O)O | no
* CC(Cl)CCl (centres undefined) | no
* CC(=O)N=C1C=CC(=O)C=C1 | no
* N#CCc1ccc(Cl)cc1 | no
* OC[C@@H](O)[C@@H](O)[C@H](O)[C@@H](O)CO | no
* Nn1nnc2c([nH]c3ccccc32)c1=O | yes
* NCC(=O)CCC(=O)O | yes
* CCCCCC[C@H](C/C=C\CCCCCCCC(=O)OC)OC(C)=O | no
* CC(C)(C#N)C(C)(C)C#N | no
* NC(=O)c1cccnc1 | no
* O=Cc1ccc(Cl)cc1 | no
* O=c1ccc2c(cc3ccc4cccc5ccc2c3c45)c1=O | no
* O=NO | no
* CC(=O)c1ccccc1 | no
